Target or system: UniProtKB Q920D2
Assay explanation: Spectrophotometric DHFR catalytic activity inhibition
Assay type: biochemical
Condition context: Table 5; Rat Liver; read-out: Inhibition of Enzyme Activity (I50)
pIC50: −log10 of the molar value.

[
  {
    "Compound": "COc1cc(NCc2ccc3nc(N)nc(N)c3c2C)cc(OC)c1OC [Trimetrexate]",
    "pIC50": 8.24
  }
]

----------
Target or system: rat liver DHFR (Rattus norvegicus, UniProt Q920D2)
Sequence (Q920D2 1-187): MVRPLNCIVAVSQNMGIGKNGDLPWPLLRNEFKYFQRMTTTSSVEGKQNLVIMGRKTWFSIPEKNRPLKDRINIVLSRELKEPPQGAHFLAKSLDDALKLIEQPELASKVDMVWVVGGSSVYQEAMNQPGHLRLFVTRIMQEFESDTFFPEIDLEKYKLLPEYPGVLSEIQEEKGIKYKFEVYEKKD
Assay explanation: Spectrophotometric DHFR catalytic activity inhibition
Type: biochemical

[
  {
    "Compound": "CCc1nc(N)nc(N)c1-c1ccc(Cl)cc1 [Pyrimethamine, pyrimethamine]",
    "IC50 / nM": 2400
  }
]

----------
Target or system: Bovine liver DHFR (Bos taurus)
Sequence (P00376 1-187): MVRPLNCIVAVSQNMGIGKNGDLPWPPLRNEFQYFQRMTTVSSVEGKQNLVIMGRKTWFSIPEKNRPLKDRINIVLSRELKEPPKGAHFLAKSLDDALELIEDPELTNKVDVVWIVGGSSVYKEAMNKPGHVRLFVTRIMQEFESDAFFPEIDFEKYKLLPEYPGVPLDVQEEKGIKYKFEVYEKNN
Assay explanation: Spectrophotometric DHFR catalytic activity inhibition
Format: biochemical
Condition context: Table 1; DHFR source Bovine; ± SEM; read-out: I50

[
  {
    "Compound": "COc1cc(NCc2ccc3nc(N)nc(N)c3c2C)cc(OC)c1OC [Trimetrexate]",
    "IC50": "14 nM"
  }
]

----------
The entries below come with measured pIC50 values attached.
Target or system: L. casei reductase (Lacticaseibacillus casei)
Construct: a bacterial source (Lactobacillus casei); purchased New England Enzyme Center of Boston, Mass; host or cells: Lactobacillus casei
Sequence (P00381 whole entry): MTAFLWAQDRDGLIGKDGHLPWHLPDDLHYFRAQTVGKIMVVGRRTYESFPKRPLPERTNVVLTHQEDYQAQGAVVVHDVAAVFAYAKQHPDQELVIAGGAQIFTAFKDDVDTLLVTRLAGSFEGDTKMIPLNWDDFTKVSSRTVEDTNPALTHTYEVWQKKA
Assay explanation: Spectrophotometric DHFR catalytic activity inhibition
Format: biochemical, Lactobacillus casei
Condition context: Table 1; DHFR source L. casei; ± SEM; read-out: I50
pIC50: −log10 of the molar value.

[
  {
    "Compound": "COc1cc(NCc2ccc3nc(N)nc(N)c3c2C)cc(OC)c1OC [Trimetrexate]",
    "pIC50": 8.21
  },
  {
    "Compound": "CCc1nc(N)nc(N)c1-c1ccc(Cl)cc1 [Pyrimethamine, pyrimethamine]",
    "pIC50": 5.13
  }
]
